# System name: EP2 (Homo sapiens, UniProt P43116)
# Sequence (P43116 whole entry): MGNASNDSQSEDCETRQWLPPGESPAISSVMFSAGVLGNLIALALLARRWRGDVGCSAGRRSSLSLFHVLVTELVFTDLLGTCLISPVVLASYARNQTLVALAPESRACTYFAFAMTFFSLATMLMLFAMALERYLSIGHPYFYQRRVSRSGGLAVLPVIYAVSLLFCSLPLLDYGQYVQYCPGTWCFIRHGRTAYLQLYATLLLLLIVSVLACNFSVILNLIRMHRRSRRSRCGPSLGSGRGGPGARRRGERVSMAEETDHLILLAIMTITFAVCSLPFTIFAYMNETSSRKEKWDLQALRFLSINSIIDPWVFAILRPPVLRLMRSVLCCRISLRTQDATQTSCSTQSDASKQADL
# Test protocol: EP2 cAMP
# Format: cell-based
pEC50: −log10 of the molar value.
Readout kind: pEC50

For orientation, consider the following solved cases.
1. O=C(O)c1ccc(CCC[C@@H]2[C@@H](/C=C/c3cc(F)cc(F)c3)[C@H](O)C[C@H]2Cl)s1 [Example 6]; 9.52
2. O=C(O)c1ccc(CCC[C@@H]2[C@@H](/C=C/c3cc(Cl)cc(CO)c3)[C@H](O)C[C@H]2Cl)s1 [Example 2]; 9.89
3. O=C(O)c1csc(SCC[C@@H]2[C@@H](C#Cc3cc(Cl)cc(Cl)c3)[C@H](O)C[C@H]2Cl)n1 [Example 34]; 9.80
4. O=C(O)c1ccc(CCC[C@@H]2[C@@H](C#Cc3ccccc3)[C@H](O)C[C@H]2F)s1 [Example 19]; 9.64
5. O=C(O)c1ccc(CCC[C@@H]2[C@@H](C#Cc3ccsc3)[C@H](O)C[C@H]2Cl)s1 [Example 29]; 8.48

A. C=CCCc1cccc(C#C[C@@H]2[C@@H](CCCc3ccc(C(=O)O)s3)[C@H](Cl)C[C@H]2O)c1 [Example 27]
B. O=C(O)c1ccc(CCC[C@@H]2[C@@H](C#Cc3ccccc3)[C@H](O)C[C@H]2C(F)(F)F)s1 (single isomer, unassigned) [Example 24]
Consider entries A and B . Which has the numerically lower pEC50? Reply with the label of the item you choose.
B
(B: 8.40, A: 10.52)

// provenance: patent US9765065B2
